Hey, just so you know, these numbers are from PubChem BioAssay AID1159580.

- method: chemical genetic growth profiling, strain panel (AID 1159580);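 further: tested at 20 µM; growth read once vehicle control cultures reached saturation at 30 °C; 1 = growth at the plate median or of vehicle wells; lower values mean less growth of the strain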
- experimentalSetup: S. cerevisiae deletion strains, growth OD, locus YNR030W, strain Alg12, hits give low values
Hit rate of the full screen: of about 5,500 compounds, about 2,000 (36%) were called active. Roughly 18% stayed inconclusive and do not appear here. This is one part of the list.
metric: normalized growth
Quick one: just the number, no unit, thanks!

Prompt: Reported normalized growth for CC(C)c1ccccc1NC(=S)N1CCN(c2ncc(C(F)(F)F)cc2Cl)CC1 : what is it?
Response: 1.02

Prompt: Another molecule: Cc1nc(-c2nnc(Sc3ccc(C(F)(F)F)cc3[N+](=O)[O-])n2C)cs1
Response: 1.01

Prompt: Another molecule: FC(F)(F)c1cnc(N2CCN(C(=S)Nc3ccccc3)CC2)c(Cl)c1
Response: 1

Prompt: Another molecule: COc1cc(C2OC(c3cc(C)ccc3[N+](=O)[O-])=NN2C(C)=O)cc(OC)c1OC (centres undefined)
Response: 0.985

Prompt: Another molecule: Cc1nn(C)c(C)c1NS(=O)(=O)c1cc(Cl)sc1Cl
Response: 1.01

Prompt: Another molecule: Cc1noc(N)c1C(N)=S
Response: 0.995

Prompt: Another molecule: c1cc2c(cc1N=C1SCC3CCCCN13)OCO2 (centres undefined)
Response: 1

Prompt: Another molecule: O=[N+]([O-])c1cc(Cl)ccc1S(=O)(=O)c1ccccc1
Response: 0.974

Prompt: Another molecule: COc1ccccc1C1OC(=O)CC1C(=O)O (centres undefined)
Response: 1.01

Prompt: Another molecule: Cc1noc(C)c1NC(N)=O
Response: 0.987

Prompt: Another molecule: Cc1cc(C)cc(NC(=S)N2CCN(c3ncc(C(F)(F)F)cc3Cl)CC2)c1
Response: 1.02

Prompt: Another molecule: C=C1SC(=Nc2cccc(OC)c2)N(C(=O)C(c2ccccc2)C2CCCC2)C1(C)C (centres undefined)
Response: 1.02

Prompt: Another molecule: CCc1cc2c(cc1C(=O)CC1(O)C(=O)Nc3ccc(Br)cc31)C(C)(C)CCC2(C)C (centres undefined)
Response: 1.01

Prompt: Another molecule: CC(C)(C)c1nccc(-c2nn(-c3ccc(F)cc3)ccc2=O)n1
Response: 0.999

====

Assignment: determine reported normalized growth for the given compounds.
- method: chemical genetic growth profiling, strain panel (AID 1159580);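 further: tested at 20 µM; growth read once vehicle control cultures reached saturation at 30 °C; 1 = growth at the plate median or of vehicle wells; lower values mean less growth of the strain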
- experimentalSetup: S. cerevisiae deletion strains, growth OD, locus YNR049C, strain mso1, hits give low values
Hit rate of the full screen: of about 5,500 compounds, about 2,000 (36%) were called active. Roughly 18% stayed inconclusive and do not appear here. The list shows a part of the results.
Quick one: just the number, no unit, thanks!

Prompt: Reported normalized growth for CC(=O)NCc1c(I)c(NC(C)=O)c(I)c(C(=O)O)c1I : what is it?
Response: 0.996

Prompt: Another compound: CC1(C)CC[C@@]2(C(=O)O)C(C1)C1=CCC3[C@@]4(C)CC[C@H](O)C(C)(C)C4CC[C@@]3(C)[C@]1(C)C[C@@H]2O (stereo partly specified)
Response: 1.01

Prompt: Another compound: CC(CC(=O)C1OC1(C)C)C1C(=O)CC2(C)C3=CCC4C(C)(C)C(OC5OCC(O)C(O)C5O)CCC45CC35C(O)CC12C (stereo unspecified)
Response: 1.02

Prompt: Another compound: CC(=O)O[C@@H]1CC[C@@]2(C)C(CC[C@]3(C)C2CC=C2C4CC(C)(C)CC[C@]4(C(=O)O)CC[C@]23C)C1(C)C (stereo partly specified)
Response: 1.01

Prompt: Another compound: Nc1c2c(nc3ccccc13)CCCC2
Response: 0.975

Prompt: Another compound: CCOc1ccc2nc3cc(N)ccc3c(N)c2c1
Response: 1

Prompt: Another compound: CCCOc1ccccc1-c1nc2n[nH]nc2c(=O)[nH]1
Response: 1

Prompt: Another compound: CC1(C)CC[C@]2(C(=O)O)CC[C@]3(C)C(=CCC4[C@@]5(C)CC[C@H](O)[C@@](C)(CO)C5CC[C@]43C)C2C1 (stereo partly specified)
Response: 1.02

Prompt: Another compound: COc1ccc2c3c([nH]c2c1)C(C)=NCC3
Response: 0.999

Prompt: Another compound: C[C@H]1[C@H](C)CC[C@]2(CO)CC[C@]3(C)C(=CCC4[C@@]5(C)CC[C@H](O)C(C)(C)C5CC[C@]43C)[C@H]12 (stereo partly specified)
Response: 0.99

Prompt: Another compound: CC(CC(=O)C(O)C(C)(C)O)C1C(=O)CC2(C)C3=CCC4C(C)(C)C(OC5OCC(O)C(O)C5O)CCC45CC35C(O)CC12C (stereo unspecified)
Response: 1.02

====

- method: chemical genetic growth profiling, strain panel (AID 1159580);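 further: tested at 20 µM; growth read once vehicle control cultures reached saturation at 30 °C; 1 = growth at the plate median or of vehicle wells; lower values mean less growth of the strain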
- experimentalSetup: S. cerevisiae deletion strains, growth OD, locus YPL241C, strain CIN2, hits give low values
In all, about 5,500 compounds went through this assay and about 2,000 (36%) were called active. Another 18% or so got no clear call; they are omitted. The list shows a part of the results.
metric: normalized growth
Quick one: just the number, no unit, thanks!

Prompt: Reported normalized growth for C=C1SC(=Nc2cccc(OC)c2)N(C(=O)C(c2ccccc2)C2CCCC2)C1(C)C (stereo unspecified) : what is it?
Response: 1.07

Prompt: Another compound: CC1C(=O)OC2C1CCC1(C)C=CC(=O)C3(C)OC213 (stereo unspecified)
Response: 1.01

Prompt: Another compound: O=C1C(O)=C(O)C(=O)C(O)=C1O
Response: 0.991

Prompt: Another compound: Cc1cc(O)cc(C)c1Cl
Response: 0.999

Prompt: Another compound: O=C(O)C1CCCN(CCC=C(c2ccccc2)c2ccccc2)C1 (stereo unspecified)
Response: 1.01

Prompt: Another compound: C#C[C@]1(OC(C)=O)CCC2C3CCC4=CC(=O)CC[C@@H]4C3CC[C@@]21C (stereo partly specified)
Response: 0.975

Prompt: Another compound: Cc1c(S(=O)(=O)c2ccc(Cl)cc2)cnc2cc(C(C)(C)C)nn12
Response: 0.996

Prompt: Another compound: CCCCCCCCCCCC[C@H](C(=O)O)[C@@H](C)C(=O)O
Response: 0.99

Prompt: Another compound: COc1cc(OC)nc(N)n1
Response: 1.02

Prompt: Another compound: O=[N+]([O-])c1ccc(S(=O)(=O)c2ccc(Cl)cc2)cc1O
Response: 0.934

Prompt: Another compound: Nc1ncnc2c1nc(Sc1ccc(Cl)cc1)n2C1OC2COP(=O)(O)O[C@@H]2[C@@H]1O (stereo partly specified)
Response: 1

Prompt: Another compound: CCOP(=S)(OCC)Oc1nc(Cl)c(Cl)cc1Cl
Response: 1

Prompt: Another compound: Cc1cc(O)cc(=O)o1
Response: 1.01

Prompt: Another compound: Cc1cc(C2=CSC3=NCCN23)ccc1Cl
Response: 0.975

Prompt: Another compound: Nc1ccc(S(=O)(=O)Nc2ccnn2-c2ccccc2)cc1
Response: 1.01

Prompt: Another compound: O=[N+]([O-])c1cc(Cl)ccc1S(=O)(=O)c1ccccc1
Response: 0.958

====

Assignment: determine reported normalized growth for the given compounds.
- method: chemical genetic growth profiling, strain panel (AID 1159580);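 further: tested at 20 µM; growth read once vehicle control cultures reached saturation at 30 °C; 1 = growth at the plate median or of vehicle wells; lower values mean less growth of the strain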
- experimentalSetup: S. cerevisiae deletion strains, growth OD, locus YPL240C, strain hsp82, hits give low values
In all, about 5,500 compounds went through this assay and about 2,000 (36%) were called active. Not shown: some 18% with an inconclusive outcome. Some of the results follow. Where a SMILES comes first, the peptide text is derived from it. Bridges are numbered along the chain shown (N, C = ends). [ ]: non-standard residue; d: D form. The star is where a group is joined. ξ: configuration not given here. ξDab(CH2SO3H) = NC(CCNCS(=O)(=O)O)C(=O)O; Heptanoyl(6-Me) = CC(C)CCCCC(=O)*; Dab = NCC[CH](N)C(=O)O

Prompt: Reported normalized growth for CCOC(=O)OC(C)OC(=O)C1N2C(=O)C(NC(=O)[C@H](N)c3ccccc3)C2SC1(C)C (stereo partly specified) : what is it?
Response: 1 (inactive)

Prompt: Another compound: FC(F)(F)c1ccccc1-n1ccnc1
Response: 0.975 (inactive)

Prompt: Another compound: C#C[C@]1(OC(C)=O)CCC2C3CCC4=CC(=O)CC[C@@H]4C3CC[C@@]21C (stereo partly specified)
Response: 0.989 (inactive)

Prompt: Another compound: C[C@@H]1CC[C@]2(C(=O)O)CC[C@]3(C)C(=CCC4[C@@]5(C)CC[C@H](O)C(C)(C)C5CC[C@]43C)C2[C@H]1C (stereo partly specified)
Response: 1.01 (inactive)

Prompt: Another compound: Cc1ccc(S(=O)(=O)NC(=O)NN2CC3CCCC3C2)cc1 (stereo unspecified)
Response: 0.985 (inactive)

Prompt: Another compound: COC(=O)Nc1nc2ccc(S(=O)c3ccccc3)cc2[nH]1 (stereo unspecified)
Response: 1 (inactive)

Prompt: Another compound: C[C@H]1[C@H](C)CC[C@]2(CO)CC[C@]3(C)C(=CCC4[C@@]5(C)CC[C@H](O)C(C)(C)C5CC[C@]43C)[C@H]12 (stereo partly specified)
Response: 1.01 (inactive)

Prompt: Another compound: COC(=O)Nc1nc2ccc(C(=O)c3ccccc3)cc2[nH]1
Response: 0.992 (inactive)

Prompt: Another compound: COc1cc(N)c(Cl)cc1C(=O)NC1CCN(Cc2ccccc2)CC1
Response: 0.999 (inactive)

Prompt: Another compound: CCC(C)C1NC(=O)C(CCNCS(=O)(=O)O)NC(=O)C(NC(=O)C(CCNCS(=O)(=O)O)NC(=O)C(NC(=O)C(CCNCS(=O)(=O)O)NC(=O)CCCCC(C)C)C(C)O)CCNC(=O)C(C(C)O)NC(=O)C(CCNCS(=O)(=O)O)NC(=O)C(CCNCS(=O)(=O)O)NC(=O)C(C(C)CC)NC1=O (stereo unspecified) ({Heptanoyl(6-Me)}-[ξDab(CH2SO3H)]T[ξDab(CH2SO3H)][Dab][ξDab(CH2SO3H)]II[ξDab(CH2SO3H)][ξDab(CH2SO3H)]T; lactam 4-C; configuration not given here)
Response: 0.988 (inactive)

Prompt: Another compound: Nc1ccc(S(=O)(=O)Nc2cnc3ccccc3n2)cc1
Response: 1.02 (inactive)

Prompt: Another compound: CC1(C)CC[C@@]2(C(=O)O)C(C1)C1=CCC3[C@@]4(C)CC[C@H](O)C(C)(C)C4CC[C@@]3(C)[C@]1(C)C[C@@H]2O (stereo partly specified)
Response: 1.01 (inactive)

Prompt: Another compound: CC1(C)CC[C@]2(C(=O)O)CC[C@]3(C)C(=CCC4[C@@]5(C)CC[C@@H](O)C(C)(C)C5CC[C@]43C)C2C1 (stereo partly specified)
Response: 1.01 (inactive)

Prompt: Another compound: C#C[C@]1(O)CCC2C3CCC4=CC(=O)CC[C@@H]4C3CC[C@@]21CC (stereo partly specified)
Response: 1 (inactive)

Prompt: Another compound: CC(C)(C#N)O[C@@H]1O[C@H](CO)[C@@H](O)[C@H](O)[C@H]1O
Response: 0.995 (inactive)

Prompt: Another compound: CC1(C)CC[C@]2(C)CC[C@]3(C)C(=CCC4[C@@]5(C)CC[C@H](O)C(C)(C)C5CC[C@]43C)C2C1 (stereo partly specified)
Response: 0.988 (inactive)
